# target: Heartland virus (HRTV) nucleocapsid (N) protein (Heartland virus (HRTV))

binder	ELISA endpoint [ng/mL]
MAb 2AF11 (antibody, V domains shown) VH: QVTLKESGPGILQPSQTLSLTCSFSGFSLSTSGMSVGWIRQPSGKGLEWLAHIWWNDDMYYNPALESRLTISKDTSNNQVFLKIASVVTADTATYYCARIALTGPYWYFDVWGAGTTVTVSS VL: DIVMTQTPASLSASVGETVTITCRASENIYSYLAWYQQKQGKSPQLLVNNAKTLAEGVPSRFSGSGSGTQFSLKINSLQPEDCGNYYCQHHYGTPLTFGAGTKLELK	10000
MAb 2BB7 (antibody, V domains shown) VH: EVQLQQSGPDLVKPGASMKISCKASGYSFTAYTMNWVKQSHGKNLEWIGLISPYNGGTSYNQKFKGKATLTVDKSSSTAYMELLSLTSEDSAVYYCARQIGPYFDHWGQGTTLTVSS VL: IVMTQTTPSSMYASLGERVTITCKASQDIKSSFSWFQQKPGKSPKTLIYRASRLVDGVPSRFSGSGSGQDSSLTISSLEYEDMGIYYCLQCDEFPYTFGGGTKLEIK	24.4
MAb 2BA2 (antibody, V domains shown) VH: VQLQESGPGLVKPSQPLSLTCSVTGYSITSAYYWNWIRQFPGNKLEWMGYITYDGTNNYNPSLKNRISITRDTSKNQFFLKLNSVTTEDTASYYCARDVATVGAMDYWGQGTSVTVSS VL: SIVMTQTPKFLLVSAGDRVTITCKASQSVSNDVAWYQQKPGQSPKLLIYFASNRYTGVPDRFTGSGYGTDFTFTISTVLAEDLALYFCQQDYSSPRTFGGGTKLEVK	39.1
